test_details: in vitro
conditions: human
assay_endpoint: CC50

INSERT INTO results (chemical_string, assay_endpoint, recorded_measurement) VALUES
  ('C[C@@]1(O)[C@H](O)[C@@H](CO)O[C@H]1n1cnc2c(N)ncnc21', 'CC50', '> 44 µM');

====

Overview of reported EC50 across a group of molecules:
System: INSTI-resistant HIV-1 mutants (HXB2)
test_details: microbe, parasite or virus in culture
Assay type: cell-based
conditions: Human immunodeficiency virus 1, HXB2, IN mutant E92Q/N155H
assay_endpoint: EC50 (nM)

INSERT INTO results (chemical_string, assay_endpoint, readout_unit, recorded_measurement) VALUES
  ('O=C(NCc1c(F)cc(F)cc1F)c1cn2c(c(O)c1=O)C(=O)N1[C@H]3CC[C@H](C3)O[C@@H]1C2', 'EC50', 'nM', 2),
  ('C[C@@H]1CCO[C@H]2Cn3cc(C(=O)NCc4ccc(F)cc4F)c(=O)c(O)c3C(=O)N12', 'EC50', 'nM', 2.8),
  ('O=C1Nc2ccc(Cl)cc2[C@@](C#CC2CC2)(C(F)(F)F)O1', 'EC50', 'nM', 1.5),
  ('Cc1nnc(C(=O)NC(C)(C)c2nc(C(=O)NCc3ccc(F)cc3)c(O)c(=O)n2C)o1', 'EC50', 'nM', 624);

====

Tested on: inhibitor-selected HIV-1 IIIb passages
test_details: Phenotypic profile of selected HIV-1 passages
Format: cell-based
conditions: Human immunodeficiency virus 1, IIIB, selected virus BIC P5 (day 71, 12 nM)
pEC50: −log10 of the molar value.
Decide using pEC50: a value greater than or equal to 8 is fulfilled, a smaller one is not fulfilled.

INSERT INTO assay_data (chemical_string, class) VALUES
  ('Cc1nnc(C(=O)NC(C)(C)c2nc(C(=O)NCc3ccc(F)cc3)c(O)c(=O)n2C)o1', 'not fulfilled'),
  ('O=C1Nc2ccc(Cl)cc2[C@@](C#CC2CC2)(C(F)(F)F)O1', 'fulfilled'),
  ('O=C(NCc1c(F)cc(F)cc1F)c1cn2c(c(O)c1=O)C(=O)N1[C@H]3CC[C@H](C3)O[C@@H]1C2', 'fulfilled');

====

Tested on: HIV-1 IIIb
test_details: Antiviral assay in MT-2 cells
Assay type: cell-based
conditions: Human immunodeficiency virus 1, MT2, 120 h; MT-2 cells, HIV-1 IIIb, 5 days; read-out: EC50
pEC50: −log10 of the molar value.
Overview of reported pEC50 across a group of compounds:
assay_endpoint: pEC50

INSERT INTO results (chemical_string, recorded_measurement) VALUES
  ('C[C@@H]1CCO[C@H]2Cn3cc(C(=O)NCc4ccc(F)cc4F)c(=O)c(O)c3C(=O)N12', 8.82),
  ('O=C(NCc1c(F)cc(F)cc1F)c1cn2c(c(O)c1=O)C(=O)N1[C@H]3CC[C@H](C3)O[C@@H]1C2', 8.82);

====

System: Influenza A/PC/1/73
test_details: microbe, parasite or virus in culture
Type: cell-based
conditions: NHBE
pEC50: −log10 of the molar value.
assay_endpoint: pEC50

INSERT INTO assay_data (chemical_string, target_of_assay, recorded_measurement) VALUES
  ('C[C@@H]1CCO[C@H]2Cn3cc(C(=O)NCc4ccc(F)cc4F)c(=O)c(O)c3C(=O)N12', 'Influenza A/PC/1/73', 4.89),
  ('Nc1nc2c(ncn2[C@@H]2O[C@H](CO)[C@@H](O)[C@H]2F)c(=O)[nH]1', 'Influenza A/PC/1/73', 5.22),
  ('O=C(NCc1c(F)cc(F)cc1F)c1cn2c(c(O)c1=O)C(=O)N1[C@H]3CC[C@H](C3)O[C@@H]1C2', 'Influenza A/PC/1/73', 4.27);

====

Test system: HIV-1 IIIb
test_details: Antiviral assay in MT-2 cells
Format: cell-based
conditions: Human immunodeficiency virus 1, IIIB, MT2; T-cell lines and primary human T lymphocytes; read-out: 50% effective concentrations
pEC50: −log10 of the molar value.
assay_endpoint: pEC50

INSERT INTO results (compound, target_of_assay, recorded_measurement) VALUES
  ('O=C(NCc1c(F)cc(F)cc1F)c1cn2c(c(O)c1=O)C(=O)N1[C@H]3CC[C@H](C3)O[C@@H]1C2 [BIC, Bictegravir]', 'HIV-1 IIIb', '8.62 to 8.82');

====

test_details: in vitro
conditions: human, CC50 in Primary Human Hepatocytes, Donor 1
assay_endpoint: CC50

INSERT INTO assay_data (chemical_string, recorded_measurement) VALUES
  ('COc1ccc(C[C@H](N)C(=O)N[C@H]2[C@@H](O)[C@H](n3cnc4c(N(C)C)ncnc43)O[C@@H]2CO)cc1', '1.2 µM'),
  ('O=C(NCc1c(F)cc(F)cc1F)c1cn2c(c(O)c1=O)C(=O)N1[C@H]3CC[C@H](C3)O[C@@H]1C2', '> 100 µM'),
  ('C[C@@H]1CCO[C@H]2Cn3cc(C(=O)NCc4ccc(F)cc4F)c(=O)c(O)c3C(=O)N12', '> 100 µM');

====

Tested on: HIV-1 clinical isolates
test_details: Antiviral assay against HIV-1 clinical isolates in fresh human PBMCs (RT endpoint)
conditions: Human immunodeficiency virus 1, PBMC, HIV-1 subtype E isolate 96TH_NI1046, human PBMCs
Overview of reported EC50 across a group of compounds:
assay_endpoint: EC50 (nM)

INSERT INTO results (compound, target_of_assay, recorded_measurement) VALUES
  ('O=C(NCc1c(F)cc(F)cc1F)c1cn2c(c(O)c1=O)C(=O)N1[C@H]3CC[C@H](C3)O[C@@H]1C2 [BIC, Bictegravir]', 'HIV-1 clinical isolates', 0.25),
  ('Cc1cn([C@H]2C[C@H](N=[N+]=[N-])[C@@H](CO)O2)c(=O)[nH]c1=O [AZT, zidovudine]', 'HIV-1 clinical isolates', 2.3),
  ('C[C@@H]1CCO[C@H]2Cn3cc(C(=O)NCc4ccc(F)cc4F)c(=O)c(O)c3C(=O)N12 [DTG, Dolutegravir]', 'HIV-1 clinical isolates', 0.25);

====

Tested on: inhibitor-selected HIV-1 IIIb passages
test_details: Phenotypic profile of selected HIV-1 passages
Format: cell-based
conditions: Human immunodeficiency virus 1, IIIB, selected virus BIC P10 (day 234, 384 nM)
Overview of reported log10 of EC50 across a group of molecules:
assay_endpoint: log10 of EC50 (log10 of the value in nM)

INSERT INTO results (molecule, assay_endpoint, recorded_measurement) VALUES
  ('Cc1nnc(C(=O)NC(C)(C)c2nc(C(=O)NCc3ccc(F)cc3)c(O)c(=O)n2C)o1 [RAL, raltegravir]', 'log10 of EC50', 1.47),
  ('O=C1Nc2ccc(Cl)cc2[C@@](C#CC2CC2)(C(F)(F)F)O1 [EFV, efavirenz]', 'log10 of EC50', 0.43),
  ('COc1cc2c(cc1Cc1cccc(Cl)c1F)c(=O)c(C(=O)O)cn2[C@H](CO)C(C)C [EVG, elvitegravir]', 'log10 of EC50', 1.52),
  ('O=C(NCc1c(F)cc(F)cc1F)c1cn2c(c(O)c1=O)C(=O)N1[C@H]3CC[C@H](C3)O[C@@H]1C2 [BIC, Bictegravir]', 'log10 of EC50', 1.13),
  ('C[C@@H]1CCO[C@H]2Cn3cc(C(=O)NCc4ccc(F)cc4F)c(=O)c(O)c3C(=O)N12 [DTG, Dolutegravir]', 'log10 of EC50', 1.17);

====

test_details: in vitro
conditions: human, CC50, Resting PBMCs, 6 days
assay_endpoint: CC50

INSERT INTO results (chemical_string, assay_endpoint, recorded_measurement) VALUES
  ('O=C(NCc1c(F)cc(F)cc1F)c1cn2c(c(O)c1=O)C(=O)N1[C@H]3CC[C@H](C3)O[C@@H]1C2', 'CC50', '8.4 µM'),
  ('C[C@@H]1CCO[C@H]2Cn3cc(C(=O)NCc4ccc(F)cc4F)c(=O)c(O)c3C(=O)N12', 'CC50', '30.6 µM');

====

System: HEp-2 Cells
assay_endpoint: CC50

INSERT INTO results (chemical_string, recorded_measurement) VALUES
  ('O=C(NC1CC1)c1cc2c(s1)-c1ccccc1N(C(=O)c1ccc(NC(=O)c3ccccc3-c3ccccc3)cc1)CC2', '> 50 µM');

====

Tested on: INSTI-resistant HIV-1 mutants (HXB2)
test_details: microbe, parasite or virus in culture
Format: cell-based
conditions: Human immunodeficiency virus 1, HXB2, IN mutant R263K (BIC/DTG selection), Table 7
assay_endpoint: EC50 (nM)

INSERT INTO measurements (chemical_string, target_of_assay, assay_endpoint, readout_unit, recorded_measurement) VALUES
  ('O=C(NCc1c(F)cc(F)cc1F)c1cn2c(c(O)c1=O)C(=O)N1[C@H]3CC[C@H](C3)O[C@@H]1C2', 'INSTI-resistant HIV-1 mutants (HXB2)', 'EC50', 'nM', 3.2),
  ('C[C@@H]1CCO[C@H]2Cn3cc(C(=O)NCc4ccc(F)cc4F)c(=O)c(O)c3C(=O)N12', 'INSTI-resistant HIV-1 mutants (HXB2)', 'EC50', 'nM', 3.6),
  ('O=C1Nc2ccc(Cl)cc2[C@@](C#CC2CC2)(C(F)(F)F)O1', 'INSTI-resistant HIV-1 mutants (HXB2)', 'EC50', 'nM', 1),
  ('Cc1nnc(C(=O)NC(C)(C)c2nc(C(=O)NCc3ccc(F)cc3)c(O)c(=O)n2C)o1', 'INSTI-resistant HIV-1 mutants (HXB2)', 'EC50', 'nM', 7.7);
